Assign kon to each entry below.
tested_target: T1, Recombinant Human DLL4 (delta-like protein 4) (human, UniProt Q9NR61 27-524)
T1 construct: Bought recombinant human DLL4 (R&D Systems Cat#1506-D4/CF); also called rHuman DLL4; Delta-like ligand 4
assay_method_text: SPR, Fab on recombinant human DLL4
Reply with a number, then the unit it belongs to.

Sample records with kon:
# binder, observable, value_measured
data = [
    ("Fab VH1-46_IGHD6-6*01_IGHJ1*01 S102A/S103P/S104F/H111F I51V/N52L/S54T/G56H (APFF VLTH) & L6_IGKJ1*01 S28N/S30D/S31H S52L/A55S (NDH LS) (Fab, V domains shown, Fab with CH1 (Plasmid A, His6 and Flag tags) and kappa CL (Plasmid C); also called H:APFF VLTH & L:NDH LS) VH: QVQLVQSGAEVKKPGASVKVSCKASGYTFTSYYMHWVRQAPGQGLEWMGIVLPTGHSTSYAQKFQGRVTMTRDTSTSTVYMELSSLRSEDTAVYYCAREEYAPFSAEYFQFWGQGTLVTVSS VL: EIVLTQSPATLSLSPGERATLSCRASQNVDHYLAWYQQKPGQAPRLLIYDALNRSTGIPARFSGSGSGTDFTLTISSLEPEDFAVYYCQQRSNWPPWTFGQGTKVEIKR", "kon", "684000 M⁻¹ s⁻¹"),
    ("Fab VH1-46_IGHD6-6*01_IGHJ1*01 S102A/S103P/S104F/H111F I51V/N52L/S54T/G56H (APFF VLTH) & L6_IGKJ1*01 S28N/S30D/S31H (NDH) (Fab, V domains shown, Fab with CH1 (Plasmid A, His6 and Flag tags) and kappa CL (Plasmid C); also called H:APFF VLTH & L:NDH) VH: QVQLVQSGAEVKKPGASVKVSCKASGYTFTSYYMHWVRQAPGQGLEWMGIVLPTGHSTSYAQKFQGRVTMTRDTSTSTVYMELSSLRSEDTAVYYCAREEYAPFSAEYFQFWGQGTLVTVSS VL: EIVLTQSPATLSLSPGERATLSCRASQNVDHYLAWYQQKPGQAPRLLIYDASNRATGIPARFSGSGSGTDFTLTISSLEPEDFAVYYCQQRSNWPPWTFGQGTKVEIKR", "kon", "430000 M⁻¹ s⁻¹"),
    ("Fab VH1-46_IGHD6-6*01_IGHJ1*01 S102A/S103P/S104F (APF) & L6_IGKJ1*01 S31K (Fab, V domains shown, Fab with CH1 (Plasmid A, His6 and Flag tags) and kappa CL (Plasmid C)) VH: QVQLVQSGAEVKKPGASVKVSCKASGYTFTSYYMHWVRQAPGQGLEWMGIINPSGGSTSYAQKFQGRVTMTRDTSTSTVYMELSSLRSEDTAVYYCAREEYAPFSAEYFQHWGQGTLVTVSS VL: EIVLTQSPATLSLSPGERATLSCRASQSVSKYLAWYQQKPGQAPRLLIYDASNRATGIPARFSGSGSGTDFTLTISSLEPEDFAVYYCQQRSNWPPWTFGQGTKVEIKR", "kon", "350000 M⁻¹ s⁻¹"),
]

Request: Output kon of Fab VH1-46_IGHD6-6*01_IGHJ1*01 S102A/S103P/S104F/H111F (APFF) & L6_IGKJ1*01 S28N/S30D/S31H (NDH) (Fab, V domains shown, Fab with CH1 (Plasmid A, His6 and Flag tags) and kappa CL (Plasmid C); Some paragraphs print S28D/S30N/S31H for the same NDH chain; also called H:APFF & L:NDH; APFF-NDH) VH: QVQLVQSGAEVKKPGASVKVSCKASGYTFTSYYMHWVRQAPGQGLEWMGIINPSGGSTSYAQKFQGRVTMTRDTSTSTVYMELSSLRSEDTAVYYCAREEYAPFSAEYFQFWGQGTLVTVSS VL: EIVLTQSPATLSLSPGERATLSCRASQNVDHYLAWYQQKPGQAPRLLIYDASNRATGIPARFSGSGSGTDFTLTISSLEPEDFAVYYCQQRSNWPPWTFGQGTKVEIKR
Response: 444000 M⁻¹ s⁻¹
